Value source: PubChem BioAssay (EPA / NIEHS)

Read-out: Nuclear factor NF-kappa-B p105 subunit (Homo sapiens) (UniProt P19838)
Sequence (P19838 whole entry, looked up): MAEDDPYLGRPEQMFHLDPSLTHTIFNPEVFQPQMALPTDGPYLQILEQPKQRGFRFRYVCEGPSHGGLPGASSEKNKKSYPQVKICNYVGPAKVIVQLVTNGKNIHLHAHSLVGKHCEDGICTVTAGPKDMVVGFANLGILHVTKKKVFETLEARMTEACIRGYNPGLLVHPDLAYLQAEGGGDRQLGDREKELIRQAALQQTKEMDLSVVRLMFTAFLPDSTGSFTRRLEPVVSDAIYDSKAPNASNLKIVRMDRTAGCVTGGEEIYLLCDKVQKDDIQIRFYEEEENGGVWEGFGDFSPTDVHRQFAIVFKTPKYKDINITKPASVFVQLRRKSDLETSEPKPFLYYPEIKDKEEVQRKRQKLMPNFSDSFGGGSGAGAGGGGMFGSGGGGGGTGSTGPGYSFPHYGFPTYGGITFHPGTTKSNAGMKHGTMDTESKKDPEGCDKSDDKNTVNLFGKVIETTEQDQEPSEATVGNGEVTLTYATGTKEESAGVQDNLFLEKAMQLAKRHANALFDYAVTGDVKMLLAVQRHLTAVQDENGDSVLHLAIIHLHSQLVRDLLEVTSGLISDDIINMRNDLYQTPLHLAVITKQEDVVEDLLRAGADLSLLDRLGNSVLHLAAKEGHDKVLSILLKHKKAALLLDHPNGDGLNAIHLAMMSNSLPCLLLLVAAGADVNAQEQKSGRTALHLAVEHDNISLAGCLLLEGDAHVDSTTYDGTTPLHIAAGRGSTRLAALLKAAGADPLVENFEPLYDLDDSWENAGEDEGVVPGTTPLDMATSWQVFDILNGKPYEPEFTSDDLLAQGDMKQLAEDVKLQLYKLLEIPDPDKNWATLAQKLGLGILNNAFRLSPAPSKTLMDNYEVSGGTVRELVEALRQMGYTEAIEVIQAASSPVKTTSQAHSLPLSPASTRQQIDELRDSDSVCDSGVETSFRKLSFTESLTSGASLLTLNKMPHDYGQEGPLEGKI
Assay: LTEA_HepaRG_NFKB1: Life Technologies and Expression Analysis (LTEA) Assay for Nuclear Factor Kappa B Subunit 1 (NFKB1) using HepaRG (AID 2283521)
Settings: mRNA level, 48 h; actives raise or lower the signal
Calls of active or inactive are those of the source. The calls were made as follows: active = hit-call score of the fitted dose curve at least 0.9, where 1 is the maximum; inactive = score below 0.9.
Classes used: 1 (yes) = active, 0 (no) = inactive

[
  {
    "MOLECULE": "CCN1CCC2(CC1)COc1cc3c(cc12)N(C(=O)c1ccc(-c2ccc(-c4nnc(C)o4)cc2C)cc1)CC3",
    "ASSIGNED_CATEGORY": "1 (yes)"
  },
  {
    "MOLECULE": "O=C(O)C(F)(F)C(F)(F)C(F)(F)C(F)(F)C(F)(F)C(F)(F)F",
    "ASSIGNED_CATEGORY": "0 (no)"
  },
  {
    "MOLECULE": "C[C@]12CCC(=O)C[C@@H]1CC[C@@H]1[C@@H]2CC[C@]2(C)[C@@H](O)CC[C@@H]12",
    "ASSIGNED_CATEGORY": "0 (no)"
  },
  {
    "MOLECULE": "CC(C)(C)c1cc(O)ccc1O",
    "ASSIGNED_CATEGORY": "0 (no)"
  },
  {
    "MOLECULE": "CC(C)(c1ccccc1)c1ccc(O)c(C(C)(C)c2ccccc2)c1",
    "ASSIGNED_CATEGORY": "0 (no)"
  },
  {
    "MOLECULE": "CCCCCCCCc1ccc(O)cc1",
    "ASSIGNED_CATEGORY": "0 (no)"
  },
  {
    "MOLECULE": "Cn1sc(Cl)cc1=O",
    "ASSIGNED_CATEGORY": "0 (no)"
  },
  {
    "MOLECULE": "CCOP(=S)(OCC)Oc1nc(Cl)c(Cl)cc1Cl",
    "ASSIGNED_CATEGORY": "0 (no)"
  },
  {
    "MOLECULE": "COc1cc(-c2ccc(N)c(OC)c2)ccc1N",
    "ASSIGNED_CATEGORY": "0 (no)"
  },
  {
    "MOLECULE": "CC12CC1(C)C(=O)N(c1cc(Cl)cc(Cl)c1)C2=O (configuration not stated)",
    "ASSIGNED_CATEGORY": "0 (no)"
  },
  {
    "MOLECULE": "O=C(Nc1ccc2[nH]ccc2c1)c1cc2cc(F)ccc2n1Cc1cccc(F)c1",
    "ASSIGNED_CATEGORY": "0 (no)"
  },
  {
    "MOLECULE": "O=c1[nH]c(=O)[nH]c(=O)[nH]1",
    "ASSIGNED_CATEGORY": "0 (no)"
  }
]

----------
Tested on: frog Estrogen Receptor (ER), gene 398734
Assay: ATG_frER1_XSP2: Attagene TRANS-FACTORIAL Multi-Species (XSP2) HepG2 Assay for frog Estrogen Receptor (ER) (AID 2283821);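 also: hits raise reporter mRNA above DMSO baseline so potency means agonist or activator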
Records with an inconclusive call do not appear. Calls of active or inactive are those of the source. The calls were made as follows: active = hit-call score of the fitted dose curve at least 0.9, where 1 is the maximum; inconclusive = response in the unintended direction; inactive = score below 0.9.
Classes used: t = active, f = inactive

[
  {
    "COMPOUND": "C[C@]12CCC(=O)C[C@@H]1CC[C@@H]1[C@@H]2CC[C@]2(C)[C@@H](O)CC[C@@H]12",
    "ASSIGNED_CATEGORY": "f"
  },
  {
    "COMPOUND": "Oc1c(I)cc(I)cc1I",
    "ASSIGNED_CATEGORY": "f"
  },
  {
    "COMPOUND": "CC(C)C1CCC(Cc2ccc(Cl)cc2)C1(O)Cn1cncn1 (stereo not given)",
    "ASSIGNED_CATEGORY": "f"
  },
  {
    "COMPOUND": "CC(=O)C=C(C)C",
    "ASSIGNED_CATEGORY": "f"
  },
  {
    "COMPOUND": "CC(C)(C)c1cc(O)ccc1O",
    "ASSIGNED_CATEGORY": "t"
  }
]
